Read-out: CYP3A5 (gene 1577)
RUN DESCRIPTION: LTEA_HepaRG_CYP3A5: Life Technologies and Expression Analysis (LTEA) Assay for CYP3A5 using HepaRG (AID 2283493)
CONDITION: mRNA level, 48 h; actives raise or lower the signal
The source made the active and inactive calls. Rule for the calls: active = hit-call score of the fitted dose curve at least 0.9, where 1 is the maximum; inactive = score below 0.9.

{"columns": ["MOLECULE", "outcome"],
 "data": [
  ["Cc1c(C(=O)O)c(O)cc2c1C(=O)c1c(O)c([C@@H]3O[C@H](CO)[C@@H](O)[C@H](O)[C@H]3O)c(O)c(O)c1C2=O", "inactive"],
  ["O=c1[nH]cc(F)c(=O)[nH]1", "inactive"],
  ["Cc1cccc(Nc2cc(Cl)nc(SCC(=O)O)n2)c1C", "inactive"],
  ["CC(C)c1ccc(C(=O)N=C(N)N)cc1S(C)(=O)=O", "inactive"],
  ["NS(=O)(=O)c1cc2c(cc1Cl)NCNS2(=O)=O", "inactive"],
  ["CNCc1cc(F)ccc1Oc1ccc(Cl)c(Cl)c1", "inactive"],
  ["Nc1ccc(S(=O)(=O)c2ccc(N)cc2)cc1", "inactive"],
  ["CCCCCCCC=O", "inactive"],
  ["COc1ccc2c(c1)c(CC(=O)O)c(C)n2C(=O)c1ccc(Cl)cc1", "inactive"],
  ["CC(CO)OC(C)CO (stereo not drawn) (tested in a mixture with another compound)", "inactive"],
  ["Cc1ccc(N(C)C)cc1", "inactive"],
  ["C=CCc1ccc(O)c(OC)c1", "inactive"],
  ["CCCCCC(=O)O", "inactive"],
  ["CCCCCCCCCCCCCCCCCC(=O)O", "inactive"],
  ["Cc1oc(-c2ccccc2)nc1CCOc1cccc2c1ccn2CCC(=O)O", "inactive"],
  ["Cc1cccc(C)c1O", "inactive"],
  ["CCCCCCC(=O)OCC", "inactive"],
  ["CC(=O)OC/C=C(\\C)CCC=C(C)C", "inactive"]
]}

Source listed as PubChem BioAssay (EPA / NIEHS).
